Where these numbers come from: PubChem BioAssay (NCI)

# System: M14 melanoma
# experiment notes: NCI tumour cell line growth inhibition, 48 h
Listing of recorded TGI by entry.

[
  {
    "structure smiles": "C/C=C(/C)C(=O)O[C@@H]1c2c(C)coc2C[C@H]2CC[C@H](O)[C@H](C)[C@]21C",
    "TGI": "> 100 µM"
  },
  {
    "structure smiles": "C(CCc1nnc2c(n1)CCCC2)Cc1nnc2c(n1)CCCC2",
    "TGI": "> 100 µM"
  },
  {
    "structure smiles": "O=C(O)c1cc2ccccc2c(N=Nc2c([N+](=O)[O-])cc([N+](=O)[O-])cc2S(=O)(=O)O)c1O",
    "TGI": "> 100 µM"
  },
  {
    "structure smiles": "CCCCCCCCCCCCCC/C(C(=O)OC)=C(/O)C(=O)OCC",
    "TGI": "37.4 µM"
  },
  {
    "structure smiles": "N#C/C(=C/c1cccnc1)C(=O)c1ccccc1",
    "TGI": "> 100 µM"
  },
  {
    "structure smiles": "CC(=O)Oc1ccn2nc(C)c(Br)c2c1Br",
    "TGI": "34.7 µM"
  },
  {
    "structure smiles": "Cc1ccc(C(=O)CC(Cl)=C(Cl)Cl)cc1",
    "TGI": "> 100 µM"
  },
  {
    "structure smiles": "N[C@@H]1c2c(Br)sc(Br)c2[C@H](O)[C@@H]1O",
    "TGI": "> 100 µM"
  },
  {
    "structure smiles": "COc1ccc(/C(Cl)=C(\\C=O)c2ccc(F)cc2)cc1",
    "TGI": "> 100 µM"
  },
  {
    "structure smiles": "NC(=O)c1n[nH]n(-c2ccccc2)c1=O",
    "TGI": "> 100 µM"
  },
  {
    "structure smiles": "CCCCCCCCOc1ccc(/C=N/Nc2cc(C)nc3ccc(Cl)cc23)cc1",
    "TGI": "3.51 µM"
  }
]

###

# Tested on: RXF 393 renal
# experiment notes: NCI tumour cell line growth inhibition, 48 h
TGI overview

[
  {
    "molecule": "c1ccc2nc3[nH]c4ccccc4c3cc2c1",
    "test target": "RXF 393 renal",
    "TGI": "2.66 µM"
  },
  {
    "molecule": "O=C(O)CCC1COc2ccccc2O1 (configuration not stated)",
    "test target": "RXF 393 renal",
    "TGI": "> 10 µM"
  },
  {
    "molecule": "Cc1cc(C)c2c(n1)S(=O)(=O)N(CCCN1CCN(c3cccc(C(F)(F)F)c3)CC1)/C(=C(\\O)c1ccccc1)C2=O",
    "test target": "RXF 393 renal",
    "TGI": "20.9 µM"
  },
  {
    "molecule": "CC(CN)[C@@H]1CC[C@]2(CO)CC[C@]3(C)[C@H](CC[C@@H]4[C@@]5(C)CCC(NCCO)C(C)(C)[C@@H]5CC[C@]43C)[C@@H]12 (some centres not stated)",
    "test target": "RXF 393 renal",
    "TGI": "2.97 µM"
  },
  {
    "molecule": "Cc1ccc(S(=O)(=O)N2CCC3(C(/C=C/c4ccccc4)=Nc4ccccc43)C2c2ccccc2)cc1 (configuration not stated)",
    "test target": "RXF 393 renal",
    "TGI": "> 100 µM"
  },
  {
    "molecule": "COC(=O)[C@]12CC[C@@H](C)[C@H](C)[C@@H]1C1=CC[C@@H]3[C@@]4(C)C(C=O)=C[C@@](C)(COC(C)=O)[C@@H]4[C@H](O)C[C@@]3(C)[C@]1(C)CC2",
    "test target": "RXF 393 renal",
    "TGI": "3.03 µM"
  },
  {
    "molecule": "CCc1cccc(CC)c1NC(=S)NC(=O)c1ccc(Br)cc1",
    "test target": "RXF 393 renal",
    "TGI": "> 78 µM"
  },
  {
    "molecule": "Cc1cc(Cc2cc(C)c(NC(=O)C(=O)C3C(=O)NC(=S)NC3=O)c(C(C)C)c2)cc(C(C)C)c1NC(=O)C(=O)C1C(=O)NC(=S)NC1=O",
    "test target": "RXF 393 renal",
    "TGI": "> 100 µM"
  },
  {
    "molecule": "CN(C)C(=O)CC(C(=O)O)c1c[nH]c2ccccc12 (configuration not stated)",
    "test target": "RXF 393 renal",
    "TGI": "> 100 µM"
  },
  {
    "molecule": "O=C(Nc1cnn2ccc(N3CCC[C@@H]3c3cc(F)ccc3F)nc12)N1CC[C@H](O)C1",
    "test target": "RXF 393 renal",
    "TGI": "> 100 µM"
  },
  {
    "molecule": "OC1C(O)C(O)C(O)C(O)C1O (configuration not stated)",
    "test target": "RXF 393 renal",
    "TGI": "> 1000 µM"
  },
  {
    "molecule": "CC1(C)OCC2OC3([C@H](O)CCO)OC(C)(C)OC3C2O1 (some centres not stated)",
    "test target": "RXF 393 renal",
    "TGI": "> 100 µM"
  },
  {
    "molecule": "Cn1ccc(=Nc2ccc(NC(=O)c3ccc(N=c4ccn(C)c5ccc([N+](=O)[O-])cc45)cc3)cc2)cc1",
    "test target": "RXF 393 renal",
    "TGI": "44.6 µM"
  },
  {
    "molecule": "N#C/C(=C/c1cccnc1)C(=O)c1ccccc1",
    "test target": "RXF 393 renal",
    "TGI": "> 100 µM"
  },
  {
    "molecule": "CS(=O)(=O)N1CCN(Cc2cc3nc(-c4cccc5[nH]ncc45)nc(N4CCOCC4)c3s2)CC1 (tested in a mixture with another compound)",
    "test target": "RXF 393 renal",
    "TGI": "0.371 µM"
  },
  {
    "molecule": "O=C([O-])c1ccc2c(c1)-c1nc-2nc2[n-]c(nc3nc(nc4[n-]c(n1)c1ccc(C(=O)[O-])cc41)-c1cc(C(=O)[O-])ccc1-3)c1ccc(C(=O)[O-])cc21.[Fe+2]",
    "test target": "RXF 393 renal",
    "TGI": "> 50 µM"
  },
  {
    "molecule": "CCC(C(=O)[O-])C(=O)[O-].CCC(C(=O)[O-])C(=O)[O-].N.N.NCCCCCN.[Pt+4].[Pt+4]",
    "test target": "RXF 393 renal",
    "TGI": "> 100 µM"
  }
]

###

# System: SF-539 CNS
# experiment notes: NCI tumour cell line growth inhibition, 48 h
Parameter TGI: see the listing below.

[
  {
    "compound": "CCOC(=O)CCC(C(=O)OCC)n1nc2ccc(Nc3c(C)[n+]([O-])c4cc(Cl)ccc4[n+]3[O-])cc2n1 (centres undefined)",
    "test target": "SF-539 CNS",
    "TGI": "> 100 µM"
  },
  {
    "compound": "COC(=O)[C@@H]1c2cc3c(c(O)c2[C@@H](OC)C[C@@]1(C)O)C(=O)c1c(O)cc2c(c1C3=O)OC1O[C@@]2(C)[C@H](O)[C@@H](N(C)C)[C@@H]1O",
    "test target": "SF-539 CNS",
    "TGI": "7.48 µM"
  },
  {
    "compound": "O=C(Oc1ccc([N+](=O)[O-])cc1)N1CCN(Cc2cccc(Oc3ccccc3)c2)CC1",
    "test target": "SF-539 CNS",
    "TGI": "> 100 µM"
  },
  {
    "compound": "C=C(C)CCC1CCCCC(CN(C)C)C1=O (centres undefined)",
    "test target": "SF-539 CNS",
    "TGI": "> 100 µM"
  }
]

###

# Test system: MOLT-4 leukemia
# experiment notes: NCI tumour cell line growth inhibition, 48 h
Here the recorded TGI is given for each entry.
measure name: TGI (µM)

[
  {
    "compound": "O=[N+]([O-])CC(SCc1ccccc1)c1ccc2c(c1)OCO2 (stereo not given)",
    "measure name": "TGI",
    "sign qualifier": "=",
    "measured number": 21.1
  },
  {
    "compound": "N#Cc1c(=O)c2cc([N+](=O)[O-])ccc2n2c1[nH]c1ccccc12",
    "measure name": "TGI",
    "sign qualifier": ">",
    "measured number": 76.1
  },
  {
    "compound": "COC(=O)[C@H]1[C@H](C(=O)OC)[C@@H](C)c2c(ccc3c2[nH]c2ccccc23)[C@@H]1C",
    "measure name": "TGI",
    "sign qualifier": "=",
    "measured number": 6.7
  },
  {
    "compound": "OCCCSc1ccccc1SCCCO",
    "measure name": "TGI",
    "sign qualifier": ">",
    "measured number": 100
  },
  {
    "compound": "Cc1cc(C)c2c(n1)S(=O)(=O)N(CCCN1CCN(c3cccc(C(F)(F)F)c3)CC1)/C(=C(\\O)c1ccccc1)C2=O",
    "measure name": "TGI",
    "sign qualifier": "=",
    "measured number": 10.8
  }
]
